# Tested on: HIV-IIIb
# method: Test A: Antiviral Assays in MT4 Cells
# Type: cell-based
# conditionLabel: Human immunodeficiency virus 1, IIIB, MT4, 120 h, MT-4 cells infected with HIV-IIIb (0.004 m.o.i.), 5 days of incubation, CellTiter-Glo chemiluminescence readout; read-out: EC50
Each entry below carries its reported EC50.
valueType: EC50 (nM)

[[record]]
compound = "Cc1c(C(OC(C)(C)C)C(=O)O)c(-c2ccc(Cl)cc2)c2ccccc2c1-c1ccc(N(C)C)nc1 (stereo not drawn)"
units = "nM"
resultnumber = 130

[[record]]
compound = "Cc1cc2ccc(C#Cc3cncn3C)cc2c(-c2ccc(Cl)cc2)c1C(OC(C)(C)C)C(=O)O (stereo not drawn)"
units = "nM"
resultnumber = 150

[[record]]
compound = "CC(C)(C)O[C@H](C(=O)O)c1c(COc2cncnc2)cc2ccccc2c1-c1ccc(Cl)cc1"
units = "nM"
resultnumber = 840

